- System: WPMY1-TP53BP1-CLTA
- experimental protocol: phenotypically active (imaging signature differs from DMSO and reproducible) at any of 0.3-9 uM (binary (1 = active, 0 = inactive)); higher = active
- conditions used: treatment time: 24 h
Counter-ions that a name gives are not always drawn.
Give measured phenotypically active for each item. Keep answers brief.
# respond with the number and nothing more

INPUT: What value of phenotypically active has been recorded for this entry: `O=C1CCc2ccc(OCCCCN3CCN(c4cccc(Cl)c4Cl)CC3)cc2N1`
OUTPUT: 0

INPUT: What value of phenotypically active has been recorded for this entry: `N[C@@H](Cc1ccc(O)c(O)c1)C(=O)O`
OUTPUT: 0

INPUT: What value of phenotypically active has been recorded for this entry: `COc1cc(C(=O)N2CCC(N3CCN(C)CC3)CC2)ccc1Nc1ncc2c(n1)N(C)c1ccccc1C(=O)N2C`
OUTPUT: 1

INPUT: What value of phenotypically active has been recorded for this entry: COc1ccc([C@H]2CNC(=O)C2)cc1OC1CCCC1 [(S)-(+)-Rolipram]
OUTPUT: 0

INPUT: What value of phenotypically active has been recorded for this entry: `CC[C@]1(O)C[C@@H]2CN(CCc3c([nH]c4ccccc34)[C@@](C(=O)OC)(c3cc4c(cc3OC)N(C=O)[C@H]3[C@@](O)(C(=O)OC)[C@H](OC(C)=O)[C@]5(CC)C=CCN6CC[C@]43[C@@H]65)C2)C1`
OUTPUT: 1

INPUT: What value of phenotypically active has been recorded for this entry: `O=c1cc(-c2ccc(O)cc2)oc2cc(O)cc(O)c12`
OUTPUT: 1

INPUT: What value of phenotypically active has been recorded for this entry: `CC(C)(C)NC[C@H](O)COc1nsnc1N1CCOCC1`
OUTPUT: 0

INPUT: What value of phenotypically active has been recorded for this entry: `O=c1[nH]cnc2ccccc12`
OUTPUT: 0

INPUT: What value of phenotypically active has been recorded for this entry: `CC(C)c1ccc(NC(=O)Cn2cnc3c2c(=O)n(C)c(=O)n3C)cc1`
OUTPUT: 0

INPUT: What value of phenotypically active has been recorded for this entry: `O=c1cc(-c2ccccc2)oc2cc(O)cc(O)c12`
OUTPUT: 1

INPUT: What value of phenotypically active has been recorded for this entry: `CN1C/C(=C/c2ccc(B(O)O)cc2)C(=O)/C(=C/c2ccc(B(O)O)cc2)C1`
OUTPUT: 1

INPUT: What value of phenotypically active has been recorded for this entry: O=C(c1cccc(Br)c1)N1CCC(N2CCCC2)CC1 [UNC 926 hydrochloride]
OUTPUT: 0

* * *

- Test system: HepG2-ACTB-RAB5A
- experimental protocol: phenotypically active (imaging signature differs from DMSO and reproducible) at any of 0.3-9 uM (binary (1 = active, 0 = inactive)); higher = active
- conditions used: treatment time: 24 h
Where a name gives a salt, the structure may show the parent alone.
Give one outcome, nothing more. List: yes (1) (active), no (0) (inactive)

INPUT: Entry CCOC(=O)c1c(CSc2ccccc2)n(C)c2cc(Br)c(O)c(CN(C)C)c12 [arbidol] : call = ?
OUTPUT: yes (1)

INPUT: Entry CN1CCN2c3ncccc3Cc3ccccc3C2C1 (configuration not stated) [Mirtazapine] : call = ?
OUTPUT: no (0)

INPUT: Entry O=C(O)c1cc(/N=N/c2ccc(O)c(C(=O)O)c2)ccc1O [olsalazine] : call = ?
OUTPUT: no (0)

INPUT: Entry C[N+]1(C)CCC(=C(c2ccccc2)c2ccccc2)CC1 [diphemanil] : call = ?
OUTPUT: no (0)

INPUT: Entry `CCNC(=O)c1noc(-c2cc(C(C)C)c(O)cc2O)c1-c1ccc(CN2CCOCC2)cc1` : call = ?
OUTPUT: yes (1)

INPUT: Entry O=C(O)[C@H]1O[C@@H](Oc2cc3oc(-c4ccccc4)cc(=O)c3c(O)c2O)[C@H](O)[C@@H](O)[C@@H]1O [Baicalin] : call = ?
OUTPUT: no (0)

INPUT: Entry NCCNS(=O)(=O)c1cccc2cnccc12 [H-9 dihydrochloride] : call = ?
OUTPUT: no (0)

* * *

Give measured lowest phenotypically active concentration for each item. Keep answers brief.
- Test system: HepG2-CANX-COX4
- experimental protocol: lowest phenotypically active concentration; higher = less potent
- conditions used: treatment time: 24 h
Where a name gives a salt, the structure may show the parent alone.

INPUT: What value of lowest phenotypically active concentration has been recorded for this entry: `COc1cccc(-c2cc(F)ccc2[C@H]2Cc3nc(N)nc(C)c3C(=O)N2)n1`
OUTPUT: ≤ 0.3 µM

INPUT: What value of lowest phenotypically active concentration has been recorded for this entry: O=C(NCc1cccc(O)c1)Nc1nc(-c2ccncc2)cs1 [RKI 1447 dihydrochloride]
OUTPUT: ≤ 0.3 µM

INPUT: What value of lowest phenotypically active concentration has been recorded for this entry: `CC(C)(C)c1cc(C(=O)/C=C/c2ccc(C(=O)O)cc2)cc(C(C)(C)C)c1`
OUTPUT: ≤ 0.3 µM

* * *

- System: A549-CANX-COX4
- experimental protocol: lowest phenotypically active concentration; higher = less potent
- conditions used: treatment time: 24 h
Counter-ions that a name gives are not always drawn.
measured property: lowest phenotypically active concentration

INPUT: What value of lowest phenotypically active concentration has been recorded for this entry: Nc1ccn([C@@H]2O[C@H](CO)[C@@H](O)[C@@H]2O)c(=O)n1 [cytarabine]
OUTPUT: ≤ 0.3 µM

INPUT: What value of lowest phenotypically active concentration has been recorded for this entry: `CC[C@@H]1C(=O)N(C)c2cnc(Nc3ccc(C(=O)NC4CCN(C)CC4)cc3OC)nc2N1C1CCCC1`
OUTPUT: ≤ 0.3 µM

INPUT: What value of lowest phenotypically active concentration has been recorded for this entry: COc1cc(C(=O)NC2CCN(C)CC2)c(F)cc1Nc1ncc2c(n1)N(C1CCCC1)CC(F)(F)C(=O)N2C [TAK 960 hydrochloride]
OUTPUT: ≤ 0.3 µM

* * *

- Test system: WPMY1-ACTB-RAB5A
- experimental protocol: lowest phenotypically active concentration; higher = less potent
- conditions used: treatment time: 24 h
measured property: lowest phenotypically active concentration

INPUT: What value of lowest phenotypically active concentration has been recorded for this entry: `COC(=O)Nc1nc2ccc(C(=O)c3cccs3)cc2[nH]1`
OUTPUT: ≤ 0.3 µM

INPUT: What value of lowest phenotypically active concentration has been recorded for this entry: `O=C(O)c1ccc(Nc2ncc3c(n2)-c2ccc(Cl)cc2C(c2c(F)cccc2F)=NC3)cc1`
OUTPUT: ≤ 0.3 µM

INPUT: What value of lowest phenotypically active concentration has been recorded for this entry: `CO[C@H]1C[C@@H]2CC[C@@H](C)[C@@](O)(O2)C(=O)C(=O)N2CCCC[C@H]2C(=O)O[C@H]([C@H](C)C[C@@H]2CC[C@@H](OC(=O)C(C)(CO)CO)[C@H](OC)C2)CC(=O)[C@H](C)C=C(C)[C@@H](O)[C@@H](OC)C(=O)[C@H](C)C[C@H](C)C=CC=CC=C1C`
OUTPUT: ≤ 0.3 µM

* * *

- System: A549-ACTB-RAB5A
- experimental protocol: phenotypically active (imaging signature differs from DMSO and reproducible) at any of 0.3-9 uM (binary (1 = active, 0 = inactive)); higher = active
- conditions used: treatment time: 24 h
Structures can show the parent of a compound that is named as a salt.
measured property: phenotypically active
# respond with the number and nothing more

INPUT: What value of phenotypically active has been recorded for this entry: CC1(C)CC(=O)C2=C(C1)NC(=S)NC2c1cccc(O)c1 (stereo unspecified) [Dimethylenastron]
OUTPUT: 1

INPUT: What value of phenotypically active has been recorded for this entry: C#C[C@]1(OC(C)=O)CC[C@H]2[C@@H]3CCC4=CC(=NO)CC[C@@H]4[C@H]3CC[C@@]21CC [norgestimate]
OUTPUT: 0

INPUT: What value of phenotypically active has been recorded for this entry: C[C@@H]1C[C@H]2[C@@H]3CCC4=CC(=O)C=C[C@]4(C)[C@@]3(Cl)[C@@H](O)C[C@]2(C)[C@@]1(OC(=O)c1ccco1)C(=O)CCl [mometasone furoate]
OUTPUT: 1

INPUT: What value of phenotypically active has been recorded for this entry: CC(=O)OCC(=O)[C@@]12OC3(CCCC3)O[C@@H]1C[C@H]1[C@@H]3CCC4=CC(=O)C=C[C@]4(C)[C@@]3(F)[C@@H](O)C[C@@]12C [amcinonide]
OUTPUT: 1

INPUT: What value of phenotypically active has been recorded for this entry: `C[C@@H]1COCCN1c1cc(C2(S(C)(=O)=O)CC2)nc(-c2cccc3[nH]ccc23)n1`
OUTPUT: 1

INPUT: What value of phenotypically active has been recorded for this entry: Cc1cc2c(s1)Nc1ccccc1N=C2N1CCN(C)CC1 [Olanzapine]
OUTPUT: 0

INPUT: What value of phenotypically active has been recorded for this entry: OCc1cc(C(O)CNCCCCCCOCCCCc2ccccc2)ccc1O (stereo unspecified) [salmeterol]
OUTPUT: 1

INPUT: What value of phenotypically active has been recorded for this entry: `CN1C(=O)/C(=C2/Nc3ccccc3/C2=N/O)c2ccc(Br)cc21`
OUTPUT: 1

INPUT: What value of phenotypically active has been recorded for this entry: COc1c(O[C@@H]2O[C@H](CO)[C@@H](O)[C@H](O)[C@H]2O)cc2c(c1OC)-c1ccc(SC)c(=O)cc1[C@@H](NC(C)=O)CC2 [Thiocolchicoside]
OUTPUT: 0

INPUT: What value of phenotypically active has been recorded for this entry: `OCCn1cc(-c2cnc3nnn(Cc4ccc5ncccc5c4)c3n2)cn1`
OUTPUT: 0

INPUT: What value of phenotypically active has been recorded for this entry: `CCOP(=O)(OCC)C(=Cc1cc(C(C)(C)C)c(O)c(C(C)(C)C)c1)P(=O)(OCC)OCC`
OUTPUT: 1

INPUT: What value of phenotypically active has been recorded for this entry: `CC(C)N(CCC(=O)c1ccc2ccccc2c1)Cc1ccccc1`
OUTPUT: 0

INPUT: What value of phenotypically active has been recorded for this entry: O=P(O)(O)C(O)(Cn1ccnc1)P(=O)(O)O [zoledronic-acid]
OUTPUT: 0

INPUT: What value of phenotypically active has been recorded for this entry: CC1CNCCN1S(=O)(=O)c1cccc2cnccc12 (stereo unspecified) [H-7 dihydrochloride]
OUTPUT: 1

INPUT: What value of phenotypically active has been recorded for this entry: CNCC(O)c1ccc(OC(=O)C(C)(C)C)c(OC(=O)C(C)(C)C)c1 (stereo unspecified) [dipivefrine]
OUTPUT: 0

INPUT: What value of phenotypically active has been recorded for this entry: NCCc1ccc(O)c(O)c1 [dopamine]
OUTPUT: 0
